The reader will find reported concentration at 120 h values listed item by item below.
experimental details: Urinary excretion study in rats after oral NS, SF or CNS (LC–MS/MS)
Format: in vivo
study conditions: male, Sprague Dawley, rat, urine, oral, 60 mg/kg, oral NS 60 mg/kg, 120 h
Numeric answer only, unit ng/mL assumed.

Use these answered entries as a reference point.
Query block: Fill in: concentration at 120 h of CC(C)=CCC[C@](C)(O[C@@H]1O[C@H](CO)[C@@H](O)[C@H](O)[C@H]1O)[C@H]1CC[C@]2(C)[C@@H]1[C@H](O)C[C@@H]1[C@@]3(C)CC[C@H](O[C@@H]4O[C@H](CO)[C@@H](O)[C@H](O)[C@H]4O[C@@H]4O[C@H](CO)[C@@H](O)[C@H](O)[C@H]4O)C(C)(C)[C@@H]3CC[C@]12C [ginsenoside Rd] is ___
Result block: 3

Query block: Fill in: concentration at 120 h of CC(C)=CCC[C@](C)(O[C@@H]1O[C@H](CO)[C@@H](O)[C@H](O)[C@H]1O)[C@H]1CC[C@]2(C)[C@@H]1[C@H](O)C[C@@H]1[C@@]3(C)CC[C@H](O)C(C)(C)[C@@H]3[C@@H](O[C@@H]3O[C@H](CO)[C@@H](O)[C@H](O)[C@H]3O[C@@H]3O[C@@H](C)[C@H](O)[C@@H](O)[C@H]3O)C[C@]12C [ginsenoside Re] is ___
Result block: 4

Continuing:
Query block: Fill in: concentration at 120 h of CC(C)=CCC[C@](C)(O[C@@H]1O[C@H](CO)[C@@H](O)[C@H](O)[C@H]1O)[C@H]1CC[C@]2(C)[C@@H]1[C@H](O)C[C@@H]1[C@@]3(C)CC[C@H](O)C(C)(C)[C@@H]3[C@@H](O[C@@H]3O[C@H](CO)[C@@H](O)[C@H](O)[C@H]3O)C[C@]12C [ginsenoside Rg1] is ___
Result block: 59

Query block: Fill in: concentration at 120 h of CC(C)=CCC[C@](C)(O[C@@H]1O[C@H](CO[C@@H]2O[C@H](CO)[C@@H](O)[C@H](O)[C@H]2O)[C@@H](O)[C@H](O)[C@H]1O)[C@H]1CC[C@]2(C)[C@@H]1[C@H](O)C[C@@H]1[C@@]3(C)CC[C@H](O[C@@H]4O[C@H](CO)[C@@H](O)[C@H](O)[C@H]4O[C@@H]4O[C@H](CO)[C@@H](O)[C@H](O)[C@H]4O)C(C)(C)[C@@H]3CC[C@]12C [ginsenoside Rb1] is ___
Result block: 25

----------
experimental details: Fecal excretion study in rats after oral NS, SF or CNS (LC–MS/MS)
Format: in vivo
study conditions: male, Sprague Dawley; rat feces, oral NS 60 mg/kg, 36 h
metric name: concentration at 36 h (ng/mL)
Numeric answer only, unit ng/mL assumed.

Query block: Fill in: concentration at 36 h of CC(C)=CCC[C@](C)(O[C@@H]1O[C@H](CO)[C@@H](O)[C@H](O)[C@H]1O)[C@H]1CC[C@]2(C)[C@@H]1[C@H](O)C[C@@H]1[C@@]3(C)CC[C@H](O)C(C)(C)[C@@H]3[C@@H](O[C@@H]3O[C@H](CO)[C@@H](O)[C@H](O)[C@H]3O)C[C@]12C [ginsenoside Rg1] is ___
Result block: 2020

Continuing:
Query block: Fill in: concentration at 36 h of CC(C)=CCC[C@](C)(O[C@@H]1O[C@H](CO[C@@H]2O[C@H](CO)[C@@H](O)[C@H](O)[C@H]2O)[C@@H](O)[C@H](O)[C@H]1O)[C@H]1CC[C@]2(C)[C@@H]1[C@H](O)C[C@@H]1[C@@]3(C)CC[C@H](O[C@@H]4O[C@H](CO)[C@@H](O)[C@H](O)[C@H]4O[C@@H]4O[C@H](CO)[C@@H](O)[C@H](O)[C@H]4O)C(C)(C)[C@@H]3CC[C@]12C [ginsenoside Rb1] is ___
Result block: 920

Query block: Fill in: concentration at 36 h of CC(C)=CCC[C@](C)(O[C@@H]1O[C@H](CO)[C@@H](O)[C@H](O)[C@H]1O)[C@H]1CC[C@]2(C)[C@@H]1[C@H](O)C[C@@H]1[C@@]3(C)CC[C@H](O[C@@H]4O[C@H](CO)[C@@H](O)[C@H](O)[C@H]4O[C@@H]4O[C@H](CO)[C@@H](O)[C@H](O)[C@H]4O)C(C)(C)[C@@H]3CC[C@]12C [ginsenoside Rd] is ___
Result block: 505

Query block: Fill in: concentration at 36 h of CC(C)=CCC[C@](C)(O[C@@H]1O[C@H](CO)[C@@H](O)[C@H](O)[C@H]1O)[C@H]1CC[C@]2(C)[C@@H]1[C@H](O)C[C@@H]1[C@@]3(C)CC[C@H](O)C(C)(C)[C@@H]3[C@@H](O[C@@H]3O[C@H](CO)[C@@H](O)[C@H](O)[C@H]3O[C@@H]3O[C@@H](C)[C@H](O)[C@@H](O)[C@H]3O)C[C@]12C [ginsenoside Re] is ___
Result block: 421
